Molecular target: Glucose transporter (Leishmania mexicana) (UniProt O61059)
Assay: ST_JUDE_LEISH: Cytotoxicity at 2uM final concentration against transgenic Leishmania Mexicana promastigotes LmGT2 that are glucose transport deficient and complemented with the L. Mexicana glucose transporter 2. Activity is measured by DNA content using SYBR green in vitro
Type: functional
Measured inhibition by item
Measurement name: inhibition (%)

[[record]]
smiles_code = "Cc1cccc(CNc2nc(C)cc(N[C@@H](Cc3ccccc3)C(=O)NC3CCCC3)n2)c1"
measurement_name = "inhibition"
endpoint_result = 7.72

[[record]]
smiles_code = "COc1c(F)ccc2ncc(Cl)c(CCN3CCC(NCc4ccc5c(n4)NC(=O)CS5)CC3)c12"
measurement_name = "inhibition"
endpoint_result = -2.91

[[record]]
smiles_code = "N#Cc1cc(C(=O)c2cc(Br)ccc2O)cn(C2CCCCC2)c1=O"
measurement_name = "inhibition"
endpoint_result = 3.8


* * *

Molecular target: Glucose transporter (Leishmania mexicana)
Assay: ST_JUDE_LEISH: Cytotoxicity at 2uM final concentration against transgenic Leishmania Mexicana promastigotes LmGT2 that are glucose transport deficient and complemented with the L. Mexicana glucose transporter 2. Activity is measured by DNA content using SYBR green in vitro
Format: functional
Measurement name: inhibition

[[record]]
compound = "O=C(Cc1ccc[n+]([O-])c1)Nc1cccc(-c2cccc(-c3nc4cc(C(F)(F)F)ccc4[nH]3)c2)c1"
measurement_name = "inhibition"
endpoint_result = "5.03%"

[[record]]
compound = "CC(=O)Nc1cccc(Nc2c3ccccc3nc3ccccc23)c1"
measurement_name = "inhibition"
endpoint_result = "0.54%"

[[record]]
compound = "CO/N=C(\\C)c1ccc2c(c1)CCN(CCC1CCC(NC(=O)/C=C/c3ccc(F)cc3)CC1)CC2 (stereo not given)"
measurement_name = "inhibition"
endpoint_result = "11.2%"

[[record]]
compound = "CCCCN1CCN(c2cc(NS(=O)(=O)c3ccc(C(=O)Nc4ccc(C(F)(F)F)cc4)cc3)ccc2OC)CC1"
measurement_name = "inhibition"
endpoint_result = "0.69%"

[[record]]
compound = "COc1cccc(CCNCCCCCCNCCc2ccc(Cl)cc2)c1"
measurement_name = "inhibition"
endpoint_result = "2.55%"


* * *

Biological target: Glucose transporter (Leishmania mexicana)
Assay: ST_JUDE_LEISH: Cytotoxicity at 2uM final concentration against transgenic Leishmania Mexicana promastigotes LmGT2 that are glucose transport deficient and complemented with the L. Mexicana glucose transporter 2. Activity is measured by DNA content using SYBR green in vitro
Assay type: functional
Measurement name: inhibition (%)

[[record]]
compound = "CC(C)(C)c1ccc(OCC(=O)NC2CCN(c3ccnc4cc(Cl)ccc34)C2)cc1 (stereo unspecified)"
result_unit = "%"
endpoint_result = -1.09

[[record]]
compound = "Cc1ccc(CNC(=O)[C@H](CC(C)C)Nc2cc(C)nc(NCc3ccccc3C)n2)cc1"
result_unit = "%"
endpoint_result = 3.14

[[record]]
compound = "CN1CCC(Oc2cc(NC(=O)Nc3ccc(-c4ccncc4)c(C(F)(F)F)c3)ccc2Cl)CC1"
result_unit = "%"
endpoint_result = 7.11

[[record]]
compound = "CC(NC(=O)c1ccc(O)c(-c2ccc(Cl)c(Cl)c2)c1)C(=O)NCCN1CCOCC1 (stereo unspecified)"
result_unit = "%"
endpoint_result = 3.62

[[record]]
compound = "Cc1ccc(NC(=O)c2ccc3ncccc3c2)cc1OC1CCN(Cc2ccsc2)CC1"
result_unit = "%"
endpoint_result = 2.95

[[record]]
compound = "Cc1[nH]c(/C=C2\\C(=O)Nc3ccc(S(=O)(=O)Cc4c(Cl)cccc4Cl)cc32)c(C)c1C(=O)N1CCC[C@@H]1CN1CCCC1"
result_unit = "%"
endpoint_result = 2.26

[[record]]
compound = "CN(C)c1ccc(-c2ccc(C(=O)NC3CCN(Cc4ccccc4F)CC3)s2)cc1"
result_unit = "%"
endpoint_result = 1.85

[[record]]
compound = "Cc1cc(OCCCN2CCC(NC(=O)c3ccc(Br)cc3)C2)c2ccccc2n1 (stereo unspecified)"
result_unit = "%"
endpoint_result = 13.4

[[record]]
compound = "CCN1CCN(CCNc2c3ccccc3nc3ccccc23)CC1"
result_unit = "%"
endpoint_result = 79

[[record]]
compound = "CCc1cn2c3c(cc(C(=O)N[C@@H](Cc4ccccc4)[C@H](O)CNC(C)C)cc13)N(C)S(=O)(=O)C2"
result_unit = "%"
endpoint_result = 0.06

[[record]]
compound = "COc1cccc(CNC[C@@H](O)[C@H](Cc2ccccc2)NC(=O)c2cc(C(C)C)cc(N3CCCC3=O)c2)c1"
result_unit = "%"
endpoint_result = -1.21


* * *

Biological target: Hexose transporter 1 (Plasmodium falciparum)
Test: ST_JUDE_LEISH: Cytotoxicity at 2uM final concentration against transgenic Leishmania Mexicana promastigotes LmPfHT that are glucose transport deficient and complemented with the Plasmodium falciparum hexose transporter. Activity is measured by DNA content using SYBR green in vitro
Format: functional
Measured inhibition by item
Measurement name: inhibition (%)

[[record]]
molecule = "COc1ccc(C(C)Nc2nc(N)c3cc(OC)c(OC)cc3n2)cc1 (stereo not given)"
measurement_target = "Hexose transporter 1 (Plasmodium falciparum)"
result_unit = "%"
endpoint_result = 4.66

[[record]]
molecule = "CCN(CC)Cc1cc(Nc2c3ccc(Cl)cc3nc3cccc(OC)c23)ccc1O"
measurement_target = "Hexose transporter 1 (Plasmodium falciparum)"
result_unit = "%"
endpoint_result = 11.1

[[record]]
molecule = "O=C(Cc1c[nH]cn1)Nc1ccc(-c2cccc(-c3nc4cc(F)ccc4[nH]3)c2)cc1"
measurement_target = "Hexose transporter 1 (Plasmodium falciparum)"
result_unit = "%"
endpoint_result = 4.07

[[record]]
molecule = "COc1cc(Cc2cnc(N)nc2N)ccc1Oc1ccc(N)cc1"
measurement_target = "Hexose transporter 1 (Plasmodium falciparum)"
result_unit = "%"
endpoint_result = 0.48

[[record]]
molecule = "COc1cccc(-c2csc(C(=O)NC3CCCCN(Cc4ccc(C(C)(C)C)cc4)C3)c2)c1 (stereo not given)"
measurement_target = "Hexose transporter 1 (Plasmodium falciparum)"
result_unit = "%"
endpoint_result = 7.61

[[record]]
molecule = "CN(C)S(=O)(=O)c1ccc(C(=O)N(c2nc(-c3ccccc3)cs2)C2CCCCC2)cc1"
measurement_target = "Hexose transporter 1 (Plasmodium falciparum)"
result_unit = "%"
endpoint_result = 3.31

[[record]]
molecule = "Cc1ccc(Nc2nc(N/N=C/c3cccc([N+](=O)[O-])c3)nc(Nc3ccccc3)n2)c(C)c1"
measurement_target = "Hexose transporter 1 (Plasmodium falciparum)"
result_unit = "%"
endpoint_result = 1.33

[[record]]
molecule = "CCNc1cc(C(=O)N[C@@H](Cc2cccc(F)c2)[C@H](O)CNC(C)CCCC(C)C)cc(N2CCCCS2(=O)=O)c1 (stereo not given in full)"
measurement_target = "Hexose transporter 1 (Plasmodium falciparum)"
result_unit = "%"
endpoint_result = 2.92

[[record]]
molecule = "COCCN1CCN(Cc2ccc(-c3ccc(-c4nc5cc(F)ccc5[nH]4)cc3)cc2)CC1"
measurement_target = "Hexose transporter 1 (Plasmodium falciparum)"
result_unit = "%"
endpoint_result = 3

[[record]]
molecule = "Oc1ccc(CCNCc2ccc(OCc3ccccc3)c(OCc3ccccc3)c2)cc1"
measurement_target = "Hexose transporter 1 (Plasmodium falciparum)"
result_unit = "%"
endpoint_result = 76.6

[[record]]
molecule = "Cc1ccc(Nc2nccc(Nc3ccc4c(C)n[nH]c4c3)n2)cc1F"
measurement_target = "Hexose transporter 1 (Plasmodium falciparum)"
result_unit = "%"
endpoint_result = 4.19

[[record]]
molecule = "CC[C@H](C)CNC(=O)c1cncc(-c2cccc(CN(C)C3CCN(C)CC3)c2)c1"
measurement_target = "Hexose transporter 1 (Plasmodium falciparum)"
result_unit = "%"
endpoint_result = 2.75

[[record]]
molecule = "Cc1[nH]c(C)c(-c2ccc(-c3cccc(C(F)(F)F)c3)nc2)c(=O)c1Br"
measurement_target = "Hexose transporter 1 (Plasmodium falciparum)"
result_unit = "%"
endpoint_result = 8.1

[[record]]
molecule = "Cc1cc(C=C2SC(=Nc3ccccc3)N(C3CCCC3)C2=O)c(C)n1-c1ccc(Cl)cc1"
measurement_target = "Hexose transporter 1 (Plasmodium falciparum)"
result_unit = "%"
endpoint_result = 0.85

[[record]]
molecule = "Fc1ccccc1COc1ccc(Nc2ncnc3ccc(I)cc23)cc1Cl"
measurement_target = "Hexose transporter 1 (Plasmodium falciparum)"
result_unit = "%"
endpoint_result = 9.09

[[record]]
molecule = "N=C(N)c1nc2ccccc2s1"
measurement_target = "Hexose transporter 1 (Plasmodium falciparum)"
result_unit = "%"
endpoint_result = 1.89

[[record]]
molecule = "CCCCCC(C)C(C)c1cc(O)c2c(c1)OC(C)(C)C=C2c1cc[n+]([O-])cc1 (stereo not given)"
measurement_target = "Hexose transporter 1 (Plasmodium falciparum)"
result_unit = "%"
endpoint_result = 10.4

[[record]]
molecule = "Cc1cccc2nc(-c3cccc(-c4ccc(CNCc5ccccc5)cc4)c3)[nH]c12"
measurement_target = "Hexose transporter 1 (Plasmodium falciparum)"
result_unit = "%"
endpoint_result = 3.63

[[record]]
molecule = "O=C1CCCN1CCCNCc1ccc(-c2cccc(-c3nc4cc(F)ccc4[nH]3)c2)cc1"
measurement_target = "Hexose transporter 1 (Plasmodium falciparum)"
result_unit = "%"
endpoint_result = -0.8

[[record]]
molecule = "CCCC[C@H](NC(=O)OC(C)(C)C)C(=O)Nc1ccc(Cc2ccc(NC(=O)[C@H](CCCC)NC(=O)OC(C)(C)C)cc2)cc1"
measurement_target = "Hexose transporter 1 (Plasmodium falciparum)"
result_unit = "%"
endpoint_result = 4.02

